biological target: ATR/ATRIP (Homo sapiens (Human)); assay: ATR/ATRIP enzymatic assay (AlphaScreen, phosphorylation of p53); conditions: read-out: ATR IC50; recombinant ATR/ATRIP 0.63 nM, 25 nM GST-p53, 3 μM ATP, 1 hour room temperature
pIC50: −log10 of the molar value.
Recorded pIC50 values for a group of compounds are listed next.
measurement kind: pIC50

compound	inequality sign	number
C=Cc1nn(-c2cc[nH]n2)c2nc(N3CCOC[C@H]3C)cc(C(C)(C)C#N)c12	>	8.30
COc1cc(-c2cc(N3CCOC[C@H]3C)nc3c2ccn3-c2cc[nH]n2)ccn1	<	5.00
C[C@@H]1COCCN1c1cc(C(C)(C)C(N)=O)c2cnn(-c3cc[nH]n3)c2n1	=	7.25
C[C@@H]1COCCN1c1cc(C(C)(C)O)c2cnn(-c3cccc(N)n3)c2n1	=	6.98
C[C@@H]1COCCN1c1cc(N(C)c2cccnc2)c2ccn(-c3cc[nH]n3)c2n1	=	6.06
C[C@@H]1COCCN1c1cc(C2(C#N)CC[S+]([O-])CC2)c2cnn(-c3cc[nH]n3)c2n1 (stereo partly drawn)	=	7.54
C[C@@H]1COCCN1c1cc(C(C)(C)C#N)c2cnn(-c3cc[nH]n3)c2n1	=	8.22
C[C@@H]1COCCN1c1cc(-c2ccncc2)c2ccn(-c3cc[nH]n3)c2n1	=	5.73
C[C@@H]1COCCN1c1cc(C(C)(C)C(N)=O)c2ccn(-c3cc[nH]n3)c2n1	=	6.42
C[C@@H]1COCCN1c1cc(C2(O)CCN(C)CC2)c2cnn(-c3cc[nH]n3)c2n1	=	7.43
C[C@@H]1COCCN1c1cc(N2CCNC(=O)C2)c2cnn(-c3ccn[nH]3)c2n1	=	8.00
C[C@@H]1COCCN1c1cc(C2(O)CCC(C)(C#N)CC2)c2cnn(-c3cc[nH]n3)c2n1 (stereo partly drawn)	=	8.00

====

Recorded IC50 values for a group of compounds are listed next.
target: ATR/ATRIP (Homo sapiens (Human), UniProt Q13535); assay: ATR/ATRIP enzymatic assay (AlphaScreen, phosphorylation of p53); settings: read-out: ATR IC50; recombinant ATR/ATRIP 0.63 nM, 25 nM GST-p53, 3 μM ATP, 1 hour room temperature
Sequence (Q13535 whole entry): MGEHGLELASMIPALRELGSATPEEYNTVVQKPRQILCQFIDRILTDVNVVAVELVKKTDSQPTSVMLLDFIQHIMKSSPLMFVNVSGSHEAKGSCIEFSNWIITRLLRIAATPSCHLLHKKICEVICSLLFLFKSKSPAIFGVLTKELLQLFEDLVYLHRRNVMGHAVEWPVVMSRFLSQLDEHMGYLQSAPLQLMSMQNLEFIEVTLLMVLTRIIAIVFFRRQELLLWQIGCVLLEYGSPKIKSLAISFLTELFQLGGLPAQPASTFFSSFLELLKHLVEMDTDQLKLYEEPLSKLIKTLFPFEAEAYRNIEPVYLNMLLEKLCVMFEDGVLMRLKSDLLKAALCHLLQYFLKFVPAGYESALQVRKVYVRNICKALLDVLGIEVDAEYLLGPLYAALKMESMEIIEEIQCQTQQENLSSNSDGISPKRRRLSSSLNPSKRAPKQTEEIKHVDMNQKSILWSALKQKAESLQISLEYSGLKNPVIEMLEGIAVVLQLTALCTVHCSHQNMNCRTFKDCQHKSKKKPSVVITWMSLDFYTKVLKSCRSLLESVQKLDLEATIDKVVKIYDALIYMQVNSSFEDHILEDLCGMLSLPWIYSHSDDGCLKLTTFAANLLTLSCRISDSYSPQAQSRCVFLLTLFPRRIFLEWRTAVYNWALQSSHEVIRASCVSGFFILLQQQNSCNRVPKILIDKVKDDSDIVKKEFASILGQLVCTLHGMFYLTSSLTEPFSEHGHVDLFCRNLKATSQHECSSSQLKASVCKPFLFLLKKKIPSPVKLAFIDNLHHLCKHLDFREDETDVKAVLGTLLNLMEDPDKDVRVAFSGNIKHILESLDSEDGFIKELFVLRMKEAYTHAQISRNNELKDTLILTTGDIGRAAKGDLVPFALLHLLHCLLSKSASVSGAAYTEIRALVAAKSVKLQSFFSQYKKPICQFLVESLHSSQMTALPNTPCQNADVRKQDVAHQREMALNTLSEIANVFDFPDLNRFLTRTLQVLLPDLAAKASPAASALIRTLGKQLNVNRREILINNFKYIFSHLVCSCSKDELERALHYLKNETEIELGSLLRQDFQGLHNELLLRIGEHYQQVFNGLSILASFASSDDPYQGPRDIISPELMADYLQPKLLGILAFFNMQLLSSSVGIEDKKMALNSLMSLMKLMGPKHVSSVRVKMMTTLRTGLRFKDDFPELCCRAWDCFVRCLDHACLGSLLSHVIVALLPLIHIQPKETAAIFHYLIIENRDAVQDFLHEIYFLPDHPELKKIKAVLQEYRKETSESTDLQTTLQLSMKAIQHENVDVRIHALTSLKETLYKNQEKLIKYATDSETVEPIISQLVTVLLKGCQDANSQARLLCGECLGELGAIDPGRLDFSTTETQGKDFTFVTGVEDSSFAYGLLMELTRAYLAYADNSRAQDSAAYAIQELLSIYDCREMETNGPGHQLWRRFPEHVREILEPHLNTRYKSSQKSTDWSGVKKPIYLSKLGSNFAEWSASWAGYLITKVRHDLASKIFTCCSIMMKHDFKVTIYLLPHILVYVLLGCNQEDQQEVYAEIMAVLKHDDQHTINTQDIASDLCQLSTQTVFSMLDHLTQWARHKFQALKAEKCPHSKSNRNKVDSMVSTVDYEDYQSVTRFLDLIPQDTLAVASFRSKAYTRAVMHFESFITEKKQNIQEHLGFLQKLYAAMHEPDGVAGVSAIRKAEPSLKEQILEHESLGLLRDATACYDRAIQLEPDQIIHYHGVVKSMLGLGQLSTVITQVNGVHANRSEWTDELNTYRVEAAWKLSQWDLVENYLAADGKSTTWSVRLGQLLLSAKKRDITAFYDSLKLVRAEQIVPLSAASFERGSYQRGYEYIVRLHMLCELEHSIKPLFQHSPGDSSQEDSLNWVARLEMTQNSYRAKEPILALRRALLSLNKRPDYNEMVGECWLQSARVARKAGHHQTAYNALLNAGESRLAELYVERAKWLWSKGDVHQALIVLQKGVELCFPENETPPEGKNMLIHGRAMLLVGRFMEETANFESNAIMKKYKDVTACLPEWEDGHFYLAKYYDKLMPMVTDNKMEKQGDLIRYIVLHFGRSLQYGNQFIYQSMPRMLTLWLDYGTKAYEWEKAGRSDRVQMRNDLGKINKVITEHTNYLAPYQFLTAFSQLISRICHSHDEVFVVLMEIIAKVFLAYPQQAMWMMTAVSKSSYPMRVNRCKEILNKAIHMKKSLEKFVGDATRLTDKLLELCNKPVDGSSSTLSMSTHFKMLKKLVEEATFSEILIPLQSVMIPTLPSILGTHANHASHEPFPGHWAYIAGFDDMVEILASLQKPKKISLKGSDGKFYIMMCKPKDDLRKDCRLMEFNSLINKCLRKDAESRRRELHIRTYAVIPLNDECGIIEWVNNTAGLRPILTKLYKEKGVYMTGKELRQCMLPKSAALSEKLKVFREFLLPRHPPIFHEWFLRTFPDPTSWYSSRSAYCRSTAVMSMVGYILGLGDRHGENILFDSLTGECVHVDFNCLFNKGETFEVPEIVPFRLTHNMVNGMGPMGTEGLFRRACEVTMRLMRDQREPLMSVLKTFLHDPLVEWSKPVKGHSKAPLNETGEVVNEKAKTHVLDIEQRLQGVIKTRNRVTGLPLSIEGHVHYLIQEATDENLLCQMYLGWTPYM
Sequence (Q8WXE1 whole entry partner): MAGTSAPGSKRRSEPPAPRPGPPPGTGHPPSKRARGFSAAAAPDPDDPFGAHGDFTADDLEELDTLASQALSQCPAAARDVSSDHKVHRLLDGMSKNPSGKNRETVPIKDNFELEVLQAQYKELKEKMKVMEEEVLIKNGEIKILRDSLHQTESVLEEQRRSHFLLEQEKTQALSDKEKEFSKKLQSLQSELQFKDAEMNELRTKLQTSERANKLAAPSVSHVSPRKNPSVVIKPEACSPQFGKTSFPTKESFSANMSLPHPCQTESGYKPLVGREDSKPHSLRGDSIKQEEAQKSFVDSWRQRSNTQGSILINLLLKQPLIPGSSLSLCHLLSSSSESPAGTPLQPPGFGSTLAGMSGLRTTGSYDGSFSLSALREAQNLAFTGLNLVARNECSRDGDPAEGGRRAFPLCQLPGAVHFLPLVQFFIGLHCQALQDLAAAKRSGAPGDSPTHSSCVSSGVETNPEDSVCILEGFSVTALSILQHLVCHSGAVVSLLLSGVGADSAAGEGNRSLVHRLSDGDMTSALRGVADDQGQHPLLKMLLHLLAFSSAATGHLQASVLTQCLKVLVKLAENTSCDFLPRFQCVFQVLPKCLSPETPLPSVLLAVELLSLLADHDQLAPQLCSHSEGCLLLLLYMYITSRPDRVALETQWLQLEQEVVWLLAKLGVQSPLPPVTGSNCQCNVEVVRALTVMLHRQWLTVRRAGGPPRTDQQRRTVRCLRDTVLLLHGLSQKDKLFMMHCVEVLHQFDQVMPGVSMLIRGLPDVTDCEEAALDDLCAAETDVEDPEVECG

compound	IC50
C[C@@H]1COCCN1c1cc(C2(S(C)(=O)=O)CC2)c2ccn(-c3cn[nH]c3)c2n1	> 1000 nM
C[C@@H]1COCCN1c1cc(C2(S(C)(=O)=O)CC2)c2ccn(-c3cn[nH]c3C(F)(F)F)c2n1	> 1000 nM
C[C@@H]1COCCN1c1cc(-c2ccccc2F)c2cnn(-c3ccn[nH]3)c2n1 [Compound 91]	< 5 nM

====

target: ATR/ATRIP (Homo sapiens (Human)); assay: ATR/ATRIP enzymatic assay (AlphaScreen, phosphorylation of p53); conditions: read-out: ATR IC50; recombinant ATR/ATRIP 0.63 nM, 25 nM GST-p53, 3 μM ATP, 1 hour room temperature
measurement kind: IC50 (µM)

molecule	measurement kind	scale unit	inequality sign	number
Cc1c[nH]nc1-n1ccc2c(C3(S(C)(=O)=O)CC3)cc(N3CCOC[C@H]3C)nc21 [Compound 36]	IC50	µM	>	1
COC(C)(C)c1cc(N2CCOC[C@H]2C)nc2c1ccn2-c1cc[nH]n1 [Compound 30]	IC50	µM	=	0.284
C[C@@H]1COCCN1c1cc(N2CCCCS2(=O)=O)c2cnn(-c3cc[nH]n3)c2n1 [Compound 53]	IC50	µM	=	0.009
C[C@@H]1COCCN1c1cc(C(C)(C)C#N)c2cnn(-c3n[nH]cc3F)c2n1 [Compound 68]	IC50	µM	=	1.34
